MEASURE: melting point

MOLECULE	RESULT
COC(=O)c1nc(-c2ccc(C(F)(F)F)nc2)c(Cl)c(N)c1Cl [Compound 83]	148 to 150 °C
COC(=O)c1nc(-c2ccc(C)nc2)c(F)c(N)c1Cl [Compound 90]	191 °C
COC(=O)c1nc(-c2ccc(OC)nc2)c(F)c(N)c1Cl [Compound 62]	168 to 169 °C
Cc1c(-c2ccc(C(F)(F)F)nc2)nc(C(=O)O)c(Cl)c1N [Compound 51]	140 to 160 °C
COC(=O)c1nc(-c2ccc(C(F)(F)F)nc2F)c(F)c(N)c1Cl [Compound 24]	128 °C
COC(=O)c1nc(-c2ccc(Cl)c(Cl)c2Cl)c(F)c(N)c1Cl [Compound 12]	195 to 196 °C
COC(=O)c1nc(-c2ccc(Cl)c(F)c2Cl)cc(N)c1Cl [Compound 72]	183 to 189 °C
COC(=O)c1nc(-c2ccc(OC)nc2Cl)c(F)c(N)c1Cl [Compound 88]	164 to 165 °C
COc1nc(C(F)(F)F)ccc1-c1nc(C(=O)O)c(Cl)c(N)c1F [Compound 2]	133 to 134 °C
COC(=O)c1nc(-c2ccc(C3CC3)nc2)c(F)c(N)c1Cl [Compound 49]	124 to 126 °C
Nc1c(F)c(-c2ccc(C(F)(F)F)nc2)nc(C(=O)O)c1Cl [Compound 46]	164 °C
COC(=O)c1nc(-c2ccc(Cl)nc2F)c(F)c(N)c1Cl [Compound 45]	190 to 191 °C
COC(=O)c1nc(-c2ccc(C(F)(F)F)nc2)nc(N)c1OC [Compound 43]	148 to 149 °C
COc1nc(C(F)(F)F)ccc1-c1cc(N)c(Cl)c(C(=O)O)n1 [Compound 65]	169 to 171 °C
CCc1c(-c2cc(N)c(Cl)c(C(=O)OC)n2)ccc(Cl)c1F [Compound 21]	140 to 143 °C
COC(=O)c1nc(-c2ccc(Cl)nc2F)nc(N)c1Cl [Compound 94]	192 to 195 °C
COC(=O)c1nc(-c2ccc(C(F)(F)F)nc2)c(C)c(N)c1Cl [Compound 32]	145 °C
Nc1c(F)c(-c2ccc(C3CC3)nc2)nc(C(=O)O)c1Cl [Compound 36]	260 to 265 °C (dec.)
Cc1c(F)c(Cl)cc(F)c1-c1cc(N)c(Cl)c(C(=O)O)n1 [Compound 92]	160 to 162 °C
